# maps each entry to its IC50
biological target: HIV-1 IN in presence of LEDGF/p75 (Human immunodeficiency virus type 1 group M subtype B); assay: HIV-1 IN/LEDGF HTRF LEDGF-dependent integration assay
Sequence (O75475 whole entry, other chains not shown): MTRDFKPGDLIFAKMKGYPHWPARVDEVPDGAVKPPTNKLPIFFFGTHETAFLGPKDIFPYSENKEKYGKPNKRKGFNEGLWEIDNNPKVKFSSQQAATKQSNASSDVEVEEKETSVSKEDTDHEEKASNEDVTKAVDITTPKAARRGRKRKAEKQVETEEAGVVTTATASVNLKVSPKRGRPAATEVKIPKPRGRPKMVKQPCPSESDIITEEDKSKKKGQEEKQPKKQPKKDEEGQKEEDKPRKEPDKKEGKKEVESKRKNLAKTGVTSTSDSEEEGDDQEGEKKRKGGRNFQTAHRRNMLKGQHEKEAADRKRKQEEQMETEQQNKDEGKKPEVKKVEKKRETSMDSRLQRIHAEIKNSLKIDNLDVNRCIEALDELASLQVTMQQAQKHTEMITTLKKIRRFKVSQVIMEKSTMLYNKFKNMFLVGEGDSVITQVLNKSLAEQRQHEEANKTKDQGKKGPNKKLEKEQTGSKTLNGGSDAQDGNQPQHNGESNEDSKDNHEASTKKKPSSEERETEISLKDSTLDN
Please give a number only; it is taken to be in µM.

q: Report IC50 for "O=C(N/N=C/c1c(O)cc(O)cc1O)c1ccccc1O" please.
a: 9.4

q: Also check "O=C(N/N=C/c1cc(O)c(O)cc1O)c1cc(O)c(O)c(O)c1"
a: 0.08

q: Also check "O=C(N/N=C/c1c(O)cc(O)cc1O)c1cc(O)c(O)c(O)c1"
a: 1.8

---

# maps each entry to its pIC50
molecular target: HIV-1 RT-associated RNase H (Human immunodeficiency virus type 1 group M subtype B, UniProt P03366); construct: Human immunodeficiency virus type 1 heterodimeric RT was expressed and purified; assay: HIV-1 RT-associated RNase H assay (fluorescent RNA/DNA hybrid)
# pIC50: negative log10 of molar concentration; output just the value

q: Report pIC50 for "O=C(N/N=C/c1ccccc1)c1cc(O)c(O)c(O)c1" please.
a: 5.59

q: Also check "O=C(N/N=C/c1ccc(O)cc1O)c1cc(O)c(O)c(O)c1"
a: 5.77

q: Also check "O=C(N/N=C/c1c(O)cc(O)cc1O)c1cc(O)c(O)c(O)c1"
a: 5.01

q: Also check "O=C(N/N=C/c1cccc(O)c1O)c1cc(O)c(O)c(O)c1"
a: 5.51

// provenance: paper PMC5357622
